- testSystem: T1, human MS4A4A ECL1 peptide (amino acid residues 86-98) (human)
- T1 construct: synthetic peptide
- T1 peptide: CMASNTYGSNPIS
- assayInfo: ELISA, hybridoma supernatant
measurementType: binding result

anti-MS4A4A antibody 4A-12 (antibody, V domains shown, murine hybridoma antibody) VH: QVQLQQSGAELAQPGASVKMSCKASGYTFSSYWMYWVKQGPGQGLEWIGYINPGTGYTEYNQKFKDKATLTADKSSSTAYMQLSSLTSEDSAVYYCARFYYGSPYYYAMDYWGQGTSVTVSS VL: DIVMTQSQKFMSTSVGDRVTFTCKASQSVDTDVAWYQQKPGQSPKLLIYSASNRYTGVPDRFTGSGSGTDFTLTISNVQSEDLADYFCHQYNSYPLTFGAGTKLELK; no binding
anti-MS4A4A antibody 4A-4 (antibody, V domains shown, murine hybridoma antibody) VH: EIQLQQTGPDLVKPGTSVKISCKASGYSFTDYVLVWVKQSHGKSLEWIGNINPYYGNSDYNLKFEGKARLTVDRSSSTAYMQLNSLTSEDSAVYYCARYGLYAMDFWGQGTSVTVSS VL: DVLMTQTPLSLPVSLGDQASISCRSSQTIVHSNGNSYLEWYLQKPGQSPKLLIYKVSNRFSGVPDRFSGSGSGTVFTLKISRVEAEDLGVYFCFQSSHVPLTFGVGTKLELK; no binding
anti-MS4A4A antibody 4A-15 (antibody, V domains shown, murine hybridoma antibody) VH: EIQLQQTGPDLVKPGASVKISCKASGYSFTDYVILWVKQSHGKTLEWIGHINPYYANSDYNVNFRGKATLTVDKSSSTAHMQLNSLTSEDSAVYYCVRYGSGMDYWGQGTSVTVSS VL: DVLMTQTPLSLPVSLGDQASISCRSSQSIVHSDGNTYLEWYLQKPGQSPKLLIYKVSNRFSGVPDRFSGSGSGTDFTLKISRVEAEDLGVYYCFQGSHFPLTFGAGTKLELK; no binding
